We begin with a simple list: items and their reported relative binding ratio (IC50 of the test peptide divided by IC50 of the reference peptide).
Target: DRB1*1301 (Homo sapiens, UniProt P01903+P01911, A100E/A169T/K41T/L162R/M171V/P40S/Q125H/Q178H/Q39Y/Q99D/R42S/S66N/T262R/W38E/Y61H)
Test: HLA class II peptide-binding assay (competitive ELISA)
Conditions: immunopurified HLA, reference peptide IC50 208 nM, ratio ≤20 high affinity, 20–200 moderate affinity
Output: the number by itself.

Here is how some sequences turned out for relative binding ratio (IC50 of the test peptide divided by IC50 of the reference peptide).
>>> numeric_readout("GQRVVFIQPSPVRDHY [pC5, Can f 1 peptide p81–96]")
33
>>> numeric_readout("LEAKVTMLISGRCQEVK [pTL3, Tear lipocalin peptide p49–65]")
3
>>> numeric_readout("LEAKITMLTNGQCQNIT [pC3, Can f 1 peptide p48–64]")
471
>>> numeric_readout("KPVRGVKLVGRDPKNNL [pTL7, Tear lipocalin peptide p108–124]")
236
>>> numeric_readout("ALEDFREFSRAKGLNQ [pC8, Can f 1 peptide p125–140]")
245

// relative binding ratio (IC50 of the test peptide divided by IC50 of the reference peptide) value for HYILYCEGELHGRQIR [pC6, Can f 1 peptide p95–110] : 40

// relative binding ratio (IC50 of the test peptide divided by IC50 of the reference peptide) value for GTWYLKAMTVDREFPE [pTL1, Tear lipocalin peptide p15–30] : 24

----------
Biological target: DRB1*1301 (Homo sapiens, UniProt P01903+P01911, A100E/A169T/K41T/L162R/M171V/P40S/Q125H/Q178H/Q39Y/Q99D/R42S/S66N/T262R/W38E/Y61H)
Assay: HLA class II peptide-binding assay (competitive ELISA)
Settings: immunopurified HLA, reference peptide IC50 208 nM, ratio ≤20 high affinity, 20–200 moderate affinity
We begin with a simple list: items and their reported relative binding ratio (IC50 of the test peptide divided by IC50 of the reference peptide).

Here is how some sequences turned out for relative binding ratio (IC50 of the test peptide divided by IC50 of the reference peptide).
>>> result("MNLESVTPMTLTTLEGGNL [pTL2, Tear lipocalin peptide p31–49]")
"> 481"
>>> result("GKWYLKAMTADQEVPE [pC1, Can f 1 peptide p15–30]")
26
>>> result("KPDSVTPMILKAQKGGNL [pC2, Can f 1 peptide p31–48]")
26
>>> result("HYIFYCEGELHGKPVR [pTL6, Tear lipocalin peptide p96–111]")
"> 481"

// relative binding ratio (IC50 of the test peptide divided by IC50 of the reference peptide) value for ESILIPRQSETCSPGSD [pTL9, Tear lipocalin peptide p142–158] : > 481

// relative binding ratio (IC50 of the test peptide divided by IC50 of the reference peptide) value for RQIRMAKLLGRDPEQSQ [pC7, Can f 1 peptide p107–123] : 2

// relative binding ratio (IC50 of the test peptide divided by IC50 of the reference peptide) value for GKHVAYIIRSHVKDHY [pTL5, Tear lipocalin peptide p82–97] : 5

// relative binding ratio (IC50 of the test peptide divided by IC50 of the reference peptide) value for PGKYTAYEGQRVVFIQ [pC4, Can f 1 peptide p73–88] : 56
